This collection of values is drawn from patent US9345678B2.

# Tested on: RANTES secretion in human macrophages
# run-description: Effect on RANTES secretion in stimulated human macrophages in vitro
# Type: cell-based
# assay-conditions: Macrophage, TNF-α stimulation, FIG. 5B, read-out: IC50 on RANTES secretion
pIC50: −log10 of the molar value.
quantity-kind: pIC50

cpd-smiles | quantity-kind | assay-value
CCC#CC[C@H](C)[C@H](O)C#C[C@@H]1[C@H]2C/C(=C/COCC(=O)O)C[C@H]2C[C@H]1O | pIC50 | 8.80

----------
# Tested on: RANTES secretion in human macrophages
# run-description: Effect on RANTES secretion in stimulated human macrophages in vitro
# Type: cell-based
# assay-conditions: Macrophage, LPS stimulation, FIG. 5A, read-out: IC50 on RANTES secretion stimulated by LPS
pIC50: −log10 of the molar value.

cpd-smiles | pIC50
CCC#CC[C@H](C)[C@H](O)C#C[C@@H]1[C@H]2C/C(=C/COCC(=O)O)C[C@H]2C[C@H]1O | 9.10
